target_desc: PPARγ (Homo sapiens (Human), UniProt P37231)
Sequence (P37231 29-505): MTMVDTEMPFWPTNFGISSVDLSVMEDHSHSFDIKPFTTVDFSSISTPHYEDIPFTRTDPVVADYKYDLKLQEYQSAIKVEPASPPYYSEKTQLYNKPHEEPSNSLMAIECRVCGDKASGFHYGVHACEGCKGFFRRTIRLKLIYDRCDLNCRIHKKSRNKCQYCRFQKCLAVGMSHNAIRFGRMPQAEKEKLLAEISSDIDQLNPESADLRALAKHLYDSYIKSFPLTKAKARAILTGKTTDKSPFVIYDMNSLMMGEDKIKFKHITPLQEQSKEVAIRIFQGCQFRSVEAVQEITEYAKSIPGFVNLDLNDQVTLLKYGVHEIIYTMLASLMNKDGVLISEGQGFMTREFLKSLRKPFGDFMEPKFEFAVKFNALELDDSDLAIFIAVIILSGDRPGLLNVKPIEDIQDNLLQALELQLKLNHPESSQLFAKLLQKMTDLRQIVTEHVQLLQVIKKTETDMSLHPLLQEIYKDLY
Sequence (P19793 whole entry partner): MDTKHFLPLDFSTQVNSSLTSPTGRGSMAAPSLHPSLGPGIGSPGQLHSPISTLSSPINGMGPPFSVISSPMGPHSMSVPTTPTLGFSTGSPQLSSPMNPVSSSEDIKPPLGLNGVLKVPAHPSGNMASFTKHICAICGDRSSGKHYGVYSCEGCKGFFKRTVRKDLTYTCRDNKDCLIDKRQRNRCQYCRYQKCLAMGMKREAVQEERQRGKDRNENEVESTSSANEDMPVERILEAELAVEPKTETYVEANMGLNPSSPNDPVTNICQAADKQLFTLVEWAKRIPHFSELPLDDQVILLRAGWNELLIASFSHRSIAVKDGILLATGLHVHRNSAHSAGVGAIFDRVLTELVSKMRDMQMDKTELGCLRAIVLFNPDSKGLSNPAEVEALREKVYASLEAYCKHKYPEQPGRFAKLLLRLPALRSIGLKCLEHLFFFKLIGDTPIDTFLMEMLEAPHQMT
assay_details: PPARγ activating action (luciferase reporter in PPARγ:RXRα:4ERPP/CHO-K1 cells)
Format: cell-based
experimental_parameters: CHO-K1, 24 h; test compound 1 μM; luciferase activity relative to control compound X (1 μM) = 100%, non-administration group = 0%; read-out: PPARγ activating action (activation % (1 μM))
Consider the following compounds; for each one, report its activation at 1 µM.
Number only, in %; omit the unit.

Note to self: activation at 1 µM recorded for CCc1cc2c(=O)n(C/C(=N/OC)C(C)(C)C)c(=O)n(Cc3ccc(-c4ccccc4-c4noc(=O)[nH]4)cc3)c2s1 [Ex. 142] was 38

Note to self: activation at 1 µM recorded for CCc1cc2c(=O)n(CC(C)(C)c3ccccc3)c(=O)n(Cc3ccc(-c4ccccc4-c4noc(=O)[nH]4)cc3)c2s1 [Ex. 225] was 39

Note to self: activation at 1 µM recorded for CCc1cc2c(=O)n(CC(=O)c3nc4ccccc4n3C)c(=O)n(Cc3ccc(-c4ccccc4-c4noc(=O)[nH]4)cc3)c2s1 [Ex. 140] was 26

Note to self: activation at 1 µM recorded for CCc1cc2c(=O)n(CC(=O)c3ccc(OC)cc3)c(=O)n(Cc3c(F)cc(-c4ccccc4-c4noc(=O)[nH]4)cc3F)c2s1 [Ex. 197] was 67

Note to self: activation at 1 µM recorded for O=C(Cn1c(=O)c2cc(CC(F)(F)F)sc2n(Cc2ccc(-c3ccccc3-c3noc(=O)[nH]3)cc2)c1=O)C1CCCCC1 [Ex. 136] was 36

Note to self: activation at 1 µM recorded for COc1cc(F)ccc1C(=O)Cn1c(=O)c2cc(C3CC3)sc2n(Cc2ccc(-c3ccccc3-c3noc(=O)[nH]3)cc2F)c1=O [Ex. 129] was 61

Note to self: activation at 1 µM recorded for CCc1cc2c(=O)n(CC(=O)c3cccs3)c(=O)n(Cc3ccc(-c4ccccc4-c4noc(=O)[nH]4)cc3)c2s1 [Ex. 221] was 47

* * *

target_desc: UniProt:P37231
assay_details: PPARγ activating action (luciferase reporter in PPARγ:RXRα:4ERPP/CHO-K1 cells)
Type: cell-based
experimental_parameters: CHO-K1, 24 h, read-out: PPARγ activating action (activation % (1 μM))
Where a name gives a salt, the structure may show the parent alone.
Consider the following molecules; for each one, report its activation at 1 µM.
Number only, in %; omit the unit.

Note to self: activation at 1 µM recorded for COc1ccc(C(=O)Cn2c(=O)c3cc(C4CC4)sc3n(Cc3ccc(-c4ccccc4-c4noc(O)n4)cc3F)c2=O)cc1 [Ex. 105, potassium salt] was 34

Note to self: activation at 1 µM recorded for COc1cccc(C(=O)Cn2c(=O)c3cc(C4CC4)sc3n(Cc3ccc(-c4ccccc4-c4noc(O)n4)cc3)c2=O)c1 [Ex. 107, potassium salt] was 43

Note to self: activation at 1 µM recorded for COc1ccc(C(=O)Cn2c(=O)c3cc(C4CC4)sc3n(Cc3c(F)cc(-c4ccccc4-c4noc(O)n4)cc3F)c2=O)cc1 [Ex. 135, potassium salt] was 71

Note to self: activation at 1 µM recorded for CCc1cc2c(=O)n(CC(=O)c3ccc(OC)cc3)c(=O)n(Cc3ccc(-c4ccccc4-c4noc(O)n4)cc3C)c2s1 [Ex. 116, potassium salt] was 38

Note to self: activation at 1 µM recorded for CCc1cc2c(=O)n(CC(=O)c3ccccc3OC)c(=O)n(Cc3ccc(-c4ccccc4-c4noc(O)n4)cc3)c2s1 [Ex. 109, potassium salt] was 64

Note to self: activation at 1 µM recorded for CCc1cc2c(=O)n(CC(=O)c3ccc(OC)cc3)c(=O)n(Cc3ccc(-c4ccccc4-c4noc(O)n4)cc3OC)c2s1 [Ex. 192, potassium salt] was 49

Note to self: activation at 1 µM recorded for CCc1cc2c(=O)n(CC(=O)c3ccc(OC)cc3)c(=O)n(Cc3ccc(-c4ccccc4-c4noc(O)n4)cc3Br)c2s1 [Ex. 194, potassium salt] was 34

Note to self: activation at 1 µM recorded for COc1ccccc1C(=O)Cn1c(=O)c2cc(C3CC3)sc2n(Cc2ccc(-c3ccccc3-c3noc(O)n3)cc2)c1=O [Ex. 99, potassium salt] was 56

Note to self: activation at 1 µM recorded for COc1ccccc1C(=O)Cn1c(=O)c2cc(CC(F)(F)F)sc2n(Cc2c(F)cc(-c3ccccc3-c3noc(O)n3)cc2F)c1=O [Ex. 127, potassium salt] was 53
